system: cotton worm (Spodoptera litura); test: Test Method 9: sprayed cabbage seedling, third-instar larvae of cotton worm (formulation per Formulation Example 5); format: in vivo; details: 144 h, spray 20 mL/seedling, after 6 days
readoutLabel: mortality at 200 ppm

Prompt: I'd like to know its mortality at 200 ppm. The molecule in question is CNS(=O)(=O)c1c(-c2cnc(OCC(F)(F)C(F)(F)F)n(C)c2=O)nc2cc(C(F)(F)F)ccn12
Completion: ≥ 80%

Prompt: I'd like to know its mortality at 200 ppm. The molecule in question is Cn1c(OCC(F)(F)C(F)(F)F)ncc(-c2nc3ccc(Br)cn3c2S(N)(=O)=O)c1=O
Completion: ≥ 80%

Prompt: I'd like to know its mortality at 200 ppm. The molecule in question is CNS(=O)(=O)c1c(-n2cnc3ccc(OC(F)(F)F)cc3c2=O)nc2ccc(I)cn12
Completion: ≥ 80%

Prompt: I'd like to know its mortality at 200 ppm. The molecule in question is CNS(=O)(=O)c1c(-c2cnc(OCC(F)(F)C(F)(F)F)n(C)c2=O)nc2ccc(C(F)(F)F)cn12
Completion: ≥ 80%

Prompt: I'd like to know its mortality at 200 ppm. The molecule in question is CNS(=O)(=O)c1c(-c2cnc(OCC(F)(F)C(F)(F)F)n(C)c2=O)nc2ccc(I)cn12
Completion: ≥ 80%

Prompt: I'd like to know its mortality at 200 ppm. The molecule in question is CNS(=O)(=O)c1c(-c2ccc(OCC(F)(F)C(F)(F)F)n(C)c2=O)nc2ccc(C(F)(F)F)cn12
Completion: ≥ 80%

Prompt: I'd like to know its mortality at 200 ppm. The molecule in question is CNS(=O)(=O)c1c(-c2ccc(OCC(F)(F)C(F)(F)F)n(C)c2=O)nc2ccc(I)cn12
Completion: ≥ 80%

Prompt: I'd like to know its mortality at 200 ppm. The molecule in question is CN(C)S(=O)(=O)c1c(-n2cnc3ccc(OC(F)(F)F)cc3c2=O)nc2ccc(I)cn12
Completion: ≥ 80%

Prompt: I'd like to know its mortality at 200 ppm. The molecule in question is Cn1c(OCC(F)(F)C(F)(F)F)ncc(-c2nc3ccc(Br)cn3c2S(=O)(=O)NC2CC2)c1=O
Completion: ≥ 80%

Prompt: I'd like to know its mortality at 200 ppm. The molecule in question is CNS(=O)(=O)c1c(-c2cnc(OCC(F)(F)C(F)(F)F)n(C)c2=O)nc2cc(I)ccn12
Completion: ≥ 80%

Prompt: I'd like to know its mortality at 200 ppm. The molecule in question is CN(C)S(=O)(=O)c1c(-c2ccc(OCC(F)(F)C(F)(F)F)n(C)c2=O)nc2ccc(Br)cn12
Completion: ≥ 80%

Prompt: I'd like to know its mortality at 200 ppm. The molecule in question is CCNS(=O)(=O)c1c(-c2ccc(OCC(F)(F)C(F)(F)F)n(C)c2=O)nc2ccc(Br)cn12
Completion: ≥ 80%
